Target: γ-secretase (Homo sapiens)
Assay: Screening for γ-secretase-modulating activity in SKNBE2 cells carrying APP 695 wild type (assay of Citron et al 1997)
Format: cell-based
Conditions: SKNBE2, @ 1 uM; SKNBE2 cells carrying the APP 695 wild type
Method: Screening was carried out using SKNBE2 cells carrying the APP 695—wild type, grown in DMEM/NUT-mix F12 (HAM) provided by Gibco (cat no. 31330-38) containing 5% Serum/Fe supplemented with 1% non-essential amino acids. Cells were grown to near confluency. The screening was performed using the assay as described in Citron et al (1997) Nature Medicine 3: 67.
Measurement Kind: inhibition at 1 µM (%)
Numbers only here, please. The scale is %.

Solved cases below.
- Compound: "CC(C)CC(C(=O)O)c1cc(-c2ccc(C(F)(F)F)cc2)cc(C2CCN(Cc3cc(F)cc(C(F)(F)F)c3)CC2)c1 (centres unmarked)"
  inhibition at 1 µM / %: 47
- Compound: "COc1ccc(CN2C(c3cc(-c4ccc(C(F)(F)F)cc4)cc(C(CC(C)C)C(=O)O)c3)CCCC2C(F)(F)F)cc1 (centres unmarked)"
  inhibition at 1 µM / %: 70
- Compound: "CC(C)CC(C(=O)O)c1cc(-c2ccc(C(F)(F)F)cc2)cc(C2CCCN(c3ccc(F)c(F)c3)C2)c1 (centres unmarked)"
  inhibition at 1 µM / %: 45
- Compound: "CC(C)CC(C(=O)O)c1cc(-c2ccc(C(F)(F)F)cc2)cc(C2CCCN(c3ccc(C(F)(F)F)cc3)C2)c1 (centres unmarked)"
  inhibition at 1 µM / %: 37
- Compound: "CC(C)/C=C/CN1CCC(c2cc(-c3ccc(C(F)(F)F)cc3)cc(C(CC(C)C)C(=O)O)c2)CC1 (centres unmarked)"
  inhibition at 1 µM / %: 8
- Compound: "CN1C(c2cc(CC(=O)O)cc(-c3ccc(C(F)(F)F)cc3)c2)CCCC1C(F)(F)F (centres unmarked)"
  inhibition at 1 µM / %: 23
- Compound: "CC(C)CC(C(=O)O)c1cc(-c2ccc(C(F)(F)F)cc2)cc(C2CCN(C3CCCCC3)CC2)c1 (centres unmarked)"
  inhibition at 1 µM / %: 4
- Compound: "CC(C)CCN1C(c2cc(-c3ccc(C(F)(F)F)cc3)cc(C(F)(F)C(=O)O)c2)CCCC1C(F)(F)F (centres unmarked)"
  inhibition at 1 µM / %: 35

Lookup: Specify measured inhibition at 1 µM for CCN1CCCC(c2cc(-c3ccc(C(F)(F)F)cc3)cc(C(CC(C)C)C(=O)O)c2)C1 (centres unmarked) .
Found: 0

Lookup: Please look at this compound and report its inhibition at 1 µM: CC(C)C[C@H](C(=O)O)c1cc(-c2ccc(C(F)(F)F)cc2)cc([C@H]2CCC[C@@H](C(F)(F)F)N2)c1
Found: 48

====

# inhibition at 1 µM values compiled below
molecular target: UniProt:P49768; experiment: Screening for γ-secretase-modulating activity in SKNBE2 cells carrying APP 695 wild type (assay of Citron et al 1997); format: cell-based; conditions: SKNBE2, @ 1 uM; SKNBE2 cells carrying the APP 695 wild type
Provide the reading as a plain figure in %.

Some solved cases for reference:
- Molecule: "CC(C)CC(C(=O)O)c1cc(-c2ccc(C(F)(F)F)cc2)cc(C2CCCN(Cc3ccc4nnsc4c3)C2)c1 (stereo not shown)"
  System: "UniProt:P49768"
  inhibition at 1 µM / %: 54
- Molecule: "CC(C)CC(C(=O)O)c1cc(-c2ccc(C(F)(F)F)cc2)cc(N2CCN(c3cccc(C(F)(F)F)c3)CC2)c1 (stereo not shown)"
  System: "UniProt:P49768"
  inhibition at 1 µM / %: 35
- Molecule: "CC(C)CC(C(=O)O)c1cc(-c2ccc(C(F)(F)F)cc2)cc(C2CCCN(Cc3ccc4nnn(C)c4c3)C2)c1 (stereo not shown)"
  System: "UniProt:P49768"
  inhibition at 1 µM / %: 17

We now examine a further molecule.
Lookup: Given CC(C)CC(C(=O)O)c1cc(-c2ccc(C(F)(F)F)cc2)cc(C2CCC(C(F)(F)F)N(Cc3ccncc3)C2)c1 (stereo not shown) , respond with its inhibition at 1 µM.
Found: 23

Data provenance is patent US8252935B2.
